testedSystem: T1, P6-AA-1HAA-H
T1 chain: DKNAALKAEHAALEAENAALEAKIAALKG
testProtocol: two-hybrid library CCmax;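 note: natural log of median RNA to DNA barcode read ratio; higher means stronger binding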
measurementSetup: mean of both orientations
quantityKind: interaction score

> print(dat)
                                     binder       quantitykind  endpointresult
1  DENAALEAKLAALKAKNAALKAEIAALEG [P5-AA-1HAA-L]  interaction score            1.55
2  DENAALEAKKAALKAKNAALKAEIAALEG [P5-AA-1HAA-K]  interaction score          -0.889
3  DENAALEAKYAALKAKNAALKAEIAALEG [P5-AA-1HAA-Y]  interaction score            -0.1
4  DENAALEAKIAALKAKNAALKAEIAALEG [4H1401-AA]  interaction score            2.06
5  DENAALEAKVAALKAKNAALKAEIAALEG [P5-AA-1HAA-V]  interaction score            1.79
6  DENAALEAKSAALKAKNAALKAEIAALEG [P5-AA-1HAA-S]  interaction score          0.0581
7  DENAALEAKEAALKAKNAALKAEIAALEG [P5-AA-1HAA-E]  interaction score           -1.76
8  DENAALEAKNAALKAKNAALKAEIAALEG [P5-AA-1HAA-N]  interaction score             1.2
